# Species: Oryctolagus cuniculus
# experiment: Minimal inhibitory concentration against HSV-2 (Lyons)-induced cytopathogenicity by 50% in rabbit kidney cell cultures
# Assay type: functional
observation type: MIC (µg/mL)
State just the number; it will be interpreted in µg/mL.

Field: example entries. Status: answers known.
| molecule | observation type | reading unit | data value |
| --- | --- | --- | --- |
| O=c1[nH]c(=O)n([C@H]2C[C@H](O)[C@@H](CO)O2)cc1Br [BROXURIDINE] | MIC | µg/mL | 20 |
| CC1=C(C)C(=O)C(c2cn([C@H]3C[C@H](O)[C@@H](CO)O3)c(=O)[nH]c2=O)=CC1=O | MIC | µg/mL | 70 |
| O=C1C=CC(=O)C(c2cn([C@H]3C[C@H](O)[C@@H](CO)O3)c(=O)[nH]c2=O)=C1 | MIC | µg/mL | 70 |

Would you kindly look at the next entry?
Ask: Reported MIC for O=c1[nH]c(=O)n([C@H]2C[C@H](O)[C@@H](CO)O2)cc1I [IDOXURIDINE] : what is it?
Result: 0.7

###

# Species on record: Oryctolagus cuniculus
# experiment: Minimal inhibitory concentration required to cause a microscopically detectable alteration of normal cell morphology of rabbit kidney cell cultures
# Format: functional
observation type: MIC (µg/mL)
I only need the number, in µg/mL, no unit after it.

| structure smiles | reading unit | MIC |
| --- | --- | --- |
| CC1=C(c2cn([C@H]3C[C@H](O)[C@@H](CO)O3)c(=O)[nH]c2=O)C(=O)c2ccccc2C1=O | µg/mL | 40 |

# evaluate next
Ask: Can you share its MIC? I mean this compound: `CC1=C(C)C(=O)C(c2cn([C@H]3C[C@H](O)[C@@H](CO)O3)c(=O)[nH]c2=O)=CC1=O`
Result: 200

###

# subject of test: Thymidylate synthase (Mus musculus, UniProt P07607)
# Sequence (P07607 whole entry): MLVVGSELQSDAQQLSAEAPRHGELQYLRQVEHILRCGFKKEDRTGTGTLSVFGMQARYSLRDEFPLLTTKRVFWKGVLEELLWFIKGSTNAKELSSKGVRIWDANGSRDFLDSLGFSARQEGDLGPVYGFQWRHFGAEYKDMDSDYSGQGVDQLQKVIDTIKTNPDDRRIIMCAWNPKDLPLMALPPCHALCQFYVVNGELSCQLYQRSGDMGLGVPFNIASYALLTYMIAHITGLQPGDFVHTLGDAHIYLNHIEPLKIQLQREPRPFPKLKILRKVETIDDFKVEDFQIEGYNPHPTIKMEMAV
observation type: Ki (µM)
Number only, in µM; omit the unit.

| structure smiles | observation type | data value |
| --- | --- | --- |
| CC1=C(C)C(=O)C(c2cn([C@H]3C[C@H](O)[C@@H](COP(=O)(O)O)O3)c(=O)[nH]c2=O)=CC1=O | Ki | 6.1 |

Ask: Report Ki for `CC1=C(c2cn([C@H]3C[C@H](O)[C@@H](COP(=O)(O)O)O3)c(=O)[nH]c2=O)C(=O)c2ccccc2C1=O` please.
Result: 1.9

###

# Species on record: Oryctolagus cuniculus
# experiment: Minimal inhibitory concentration against vaccinia virus-induced cytopathogenicity by 50% in rabbit kidney cell cultures
# Format: functional
observation type: MIC (µg/mL)
Expressed in µg/mL, but write only the number.

Solved cases below.
| structure smiles | data value |
| --- | --- |
| O=c1[nH]c(=O)n([C@H]2C[C@H](O)[C@@H](CO)O2)cc1I | 0.7 |
| O=c1[nH]c(=O)n([C@H]2C[C@H](O)[C@@H](CO)O2)cc1Br | 7 |

Field: next molecule
Ask: Report MIC for `O=C1C=CC(=O)C(c2cn([C@H]3C[C@H](O)[C@@H](CO)O3)c(=O)[nH]c2=O)=C1` please.
Result: 70

###

Listing: MIC of selected compounds
# Organism: Oryctolagus cuniculus
# experiment: Minimal inhibitory concentration against HSV-1 (KOS)-induced cytopathogenicity by 50% in rabbit kidney cell cultures
# Type: functional
Reply with just the number (in µg/mL).

Observe how each entry below is paired with its result.
| structure smiles | MIC, µg/mL |
| --- | --- |
| CC1=C(C)C(=O)C(c2cn([C@H]3C[C@H](O)[C@@H](CO)O3)c(=O)[nH]c2=O)=CC1=O | 150 |
| O=c1[nH]c(=O)n([C@H]2C[C@H](O)[C@@H](CO)O2)cc1I | 0.2 |
| O=C1C=CC(=O)C(c2cn([C@H]3C[C@H](O)[C@@H](CO)O3)c(=O)[nH]c2=O)=C1 | 20 |

Next, consider the following compound.
Ask: Need MIC, item `O=c1[nH]c(=O)n([C@H]2C[C@H](O)[C@@H](CO)O2)cc1Br`
Result: 0.02

###

# Tested on: L1210
# experiment: Ability to inhibit the proliferation or tumor cell growth by 50% of the murine leukemia L1210 cells was determined
# Type: functional
# condition: Mus musculus, read-out: ID50 (the source's name)
Reported IC50 values for a set of compounds
Report the figure in µg/mL without appending any unit label.

Recorded results for 2 compounds are shown here.
| structure smiles | subject of test | data value |
| --- | --- | --- |
| CC1=C(c2cn([C@H]3C[C@H](O)[C@@H](CO)O3)c(=O)[nH]c2=O)C(=O)c2ccccc2C1=O | L1210 | 27.4 |
| CC1=C(C)C(=O)C(c2cn([C@H]3C[C@H](O)[C@@H](CO)O3)c(=O)[nH]c2=O)=CC1=O | L1210 | 40.5 |

Now for a further compound.
Ask: Kindly state the measured IC50 obtained for `O=C1C=CC(=O)C(c2cn([C@H]3C[C@H](O)[C@@H](CO)O3)c(=O)[nH]c2=O)=C1` with L1210.
Result: 35.7

###

# Tested on: L1210
# experiment: Ability to inhibit the proliferation or tumor cell growth by 50% of the murine leukemia L1210 cells was determined
# Format: functional
# condition: Mus musculus, read-out: ID50 (the source's name)
Parameter IC50: see the listing below.

Use these answered entries as a reference point.
| structure smiles | IC50 |
| --- | --- |
| COc1c(C)c(C)c(OC)c(-c2cn([C@H]3C[C@H](O)[C@@H](CO)O3)c(=O)[nH]c2=O)c1C | > 100 µg/mL |
| COc1c(C)c(-c2cn([C@H]3C[C@H](O)[C@@H](CO)O3)c(=O)[nH]c2=O)c(OC)c2ccccc12 | > 100 µg/mL |
| CC1=C(C)C(=O)C(c2cn([C@H]3C[C@H](O)[C@@H](CO)O3)c(=O)[nH]c2=O)=C(C)C1=O | 65.6 µg/mL |

Okay, next one:
Ask: Under L1210: IC50 value of `O=c1[nH]c(=O)n([C@H]2C[C@H](O)[C@@H](CO)O2)cc1[N+](=O)[O-]` ?
Result: 0.003 µg/mL

###

# subject of test: Thymidylate synthase (Lactobacillus casei, UniProt P00469)
# Sequence (P00469 whole entry): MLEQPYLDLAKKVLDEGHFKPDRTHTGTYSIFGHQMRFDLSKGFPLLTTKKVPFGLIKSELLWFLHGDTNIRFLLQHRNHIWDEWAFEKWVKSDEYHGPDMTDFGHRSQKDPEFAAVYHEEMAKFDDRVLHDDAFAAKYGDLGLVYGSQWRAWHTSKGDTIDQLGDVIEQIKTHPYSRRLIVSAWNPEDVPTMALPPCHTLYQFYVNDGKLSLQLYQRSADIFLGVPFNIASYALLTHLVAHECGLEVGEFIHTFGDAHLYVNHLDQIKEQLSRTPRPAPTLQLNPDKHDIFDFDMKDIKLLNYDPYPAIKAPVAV
# experiment: Ability to inhibit the thymidylate synthase from Lactobacillus casei was determined and expressed as inhibition constant(Ki)
# Parameters: species or system Lacticaseibacillus casei
The label is 1 for Ki below 2 µM and 0 for Ki equal to or exceeding 2 µM.

Solved cases below.
| structure smiles | classification |
| --- | --- |
| CC1=C(c2cn([C@H]3C[C@H](O)[C@@H](COP(=O)(O)O)O3)c(=O)[nH]c2=O)C(=O)c2ccccc2C1=O | 1 |
| COc1c(C)c(-c2cn([C@H]3C[C@H](O)[C@@H](COP(=O)(O)O)O3)c(=O)[nH]c2=O)c(OC)c2ccccc12 | 0 |
| CC1=C(C)C(=O)C(c2cn([C@H]3C[C@H](O)[C@@H](COP(=O)(O)O)O3)c(=O)[nH]c2=O)=CC1=O | 1 |
| COc1c(C)c(C)c(OC)c(-c2cn([C@H]3C[C@H](O)[C@@H](COP(=O)(O)O)O3)c(=O)[nH]c2=O)c1C | 1 |

Turning now to a further record.
Ask: Ki strictly < 2 µM for this molecule? `CC1=C(C)C(=O)C(c2cn([C@H]3C[C@H](O)[C@@H](COP(=O)(O)O)O3)c(=O)[nH]c2=O)=C(C)C1=O`
Result: 1

###

// values below are reported MIC
# Organism: Oryctolagus cuniculus
# experiment: Minimal inhibitory concentration against HSV-2 (196)-induced cytopathogenicity by 50% in rabbit kidney cell cultures
# Type: functional
# value in µg/mL; strip the unit string

| structure smiles | MIC / µg/mL |
| --- | --- |
| O=c1[nH]c(=O)n([C@H]2C[C@H](O)[C@@H](CO)O2)cc1Br | 10 |

Ask: Item `O=c1[nH]c(=O)n([C@H]2C[C@H](O)[C@@H](CO)O2)cc1I` has what recorded MIC?
Result: 1

Ask: Query: MIC; subject: `CC1=C(C)C(=O)C(c2cn([C@H]3C[C@H](O)[C@@H](CO)O3)c(=O)[nH]c2=O)=CC1=O`
Result: 70

Ask: Please give the measured MIC for this compound: `O=C1C=CC(=O)C(c2cn([C@H]3C[C@H](O)[C@@H](CO)O3)c(=O)[nH]c2=O)=C1`
Result: 70

###

# System: Raji
# experiment: Inhibition of human B-cell lymphoblast Raji cell proliferation
# Type: functional
# condition: read-out: ID50 (the source's name)
observation type: IC50

Ask: Any idea what IC50 came out for `COc1c(C)c(C)c(OC)c(-c2cn([C@H]3C[C@H](O)[C@@H](CO)O3)c(=O)[nH]c2=O)c1C` on Raji?
Result: > 100 µg/mL

Ask: Hi! What's the reported IC50 for `CC1=C(C)C(=O)C(c2cn([C@H]3C[C@H](O)[C@@H](CO)O3)c(=O)[nH]c2=O)=C(C)C1=O` on Raji?
Result: 51.1 µg/mL

Ask: Request - read-out IC50 | tested on Raji | compound `COc1cc(-c2cn([C@H]3C[C@H](O)[C@@H](CO)O3)c(=O)[nH]c2=O)c(OC)c(C)c1C`
Result: > 100 µg/mL

Ask: What IC50 appears in the records for this compound with Raji? `CC1=C(C)C(=O)C(c2cn([C@H]3C[C@H](O)[C@@H](CO)O3)c(=O)[nH]c2=O)=CC1=O`
Result: > 100 µg/mL

Ask: Missing value: IC50, Raji, entry `CC1=C(c2cn([C@H]3C[C@H](O)[C@@H](CO)O3)c(=O)[nH]c2=O)C(=O)c2ccccc2C1=O` . Fill in?
Result: 33.5 µg/mL

Ask: What reported IC50 corresponds to `O=C1C=CC(=O)C(c2cn([C@H]3C[C@H](O)[C@@H](CO)O3)c(=O)[nH]c2=O)=C1` on Raji?
Result: > 100 µg/mL
